# CONDITION DESCRIPTION: buffer; pH 7.4; 200.0 µM
Kindly supply the reported solubility kinetic values for the records listed here.
Note: unit µg/mL is implicit; provide only the numeric part.

Tell me measured solubility kinetic for O=C(CSc1nccc(=O)[nH]1)NC1CCCC1 please.
36

Tell me measured solubility kinetic for Cc1ccccc1C(=O)Nc1ccc2nc3n(c(=O)c2c1)CCCC3 please.
37.5

Tell me measured solubility kinetic for Cc1ccc(CNC(=S)NC2CCCCC2)cc1 please.
32.3

Tell me measured solubility kinetic for N#Cc1cccc(NC(=O)COC(=O)c2cc(S(=O)(=O)Nc3ccccc3Cl)ccc2O)c1 please.
40.4

Tell me measured solubility kinetic for COC(=O)c1sccc1NC(=O)Nc1ccc(C)c(C)c1 please.
20.7

Tell me measured solubility kinetic for Cc1ccccc1NC(=O)c1cc2ccccc2o1 please.
33.7

Tell me measured solubility kinetic for Cc1ccc(NC(=O)CN2C(=O)NC3(CCCc4ccccc43)C2=O)c([N+](=O)[O-])c1 (centres undefined) please.
36.5

Tell me measured solubility kinetic for COC(=O)CCC(=O)Nc1ccc2oc3c(c2c1)CCCC3 please.
43.5

Tell me measured solubility kinetic for Cc1cccc(N2CCN(CC3CCCCC3)CC2)c1C please.
2.9

Tell me measured solubility kinetic for COC(=O)c1ccsc1NC(=O)CCc1ccccc1 please.
9.6

Tell me measured solubility kinetic for COc1ccc(CNC(=S)NCc2ccc(Cl)cc2)cc1OC please.
35

Tell me measured solubility kinetic for CC1CCCC(NC(=O)c2ccc(COc3ccccc3)o2)C1C (centres undefined) please.
2.2

Tell me measured solubility kinetic for O=c1c2ccccc2sn1-c1nccs1 please.
1.4

Tell me measured solubility kinetic for COc1ccc(/C=C/C(=O)O)cc1S(=O)(=O)NCC1CCCO1 (centres undefined) please.
41.3

Tell me measured solubility kinetic for O=C(NCc1ccc(Cl)cc1)c1csc(-c2cccnc2)n1 please.
37.9
